measured_on: Proteasome chymotrypsin-like activity (S26 protein from RPMI8226 cells) (Homo sapiens, UniProt P28074)
Sequence (P28074 60-263 limits assumed): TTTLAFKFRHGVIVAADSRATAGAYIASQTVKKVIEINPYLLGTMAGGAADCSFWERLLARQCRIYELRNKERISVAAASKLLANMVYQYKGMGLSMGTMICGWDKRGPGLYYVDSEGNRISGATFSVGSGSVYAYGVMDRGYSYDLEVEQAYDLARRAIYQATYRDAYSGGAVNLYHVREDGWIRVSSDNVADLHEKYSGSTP
attribute_measured: IC50

| molecule | IC50 |
| --- | --- |
| COCC1(C(=O)N[C@@H](CC(C)C)B(O)O)CC(CNC(=O)c2nccc3ccccc23)=NO1 (stereo partly drawn) | < 10 nM |
| CC(C)C[C@H](NC(=O)C1CC(c2ccc(-c3ccccc3)cc2)=NO1)B(O)O (stereo partly drawn) | < 250 nM |
| Cc1nc2c(C(=O)NCC3=NOC(Cc4ccccc4)(C(=O)N[C@@H](CC(C)C)B(O)O)C3)cccn2c1Cl (stereo partly drawn) | < 10 nM |
| CC(C)C[C@H](NC(=O)[C@]1(Cc2ccccc2)CC(c2ccccc2)=NO1)B(O)O | < 500 nM |
| COc1ccc(C(=O)NCC2=NOC(Cc3ccccc3)(C(=O)N[C@@H](CC(C)C)B(O)O)C2)cc1 (stereo partly drawn) | < 10 nM |
| CC(C)C[C@H](NC(=O)C1(CCc2ccccc2)CC(CNC(=O)c2nccc3ccccc23)=NO1)B(O)O (stereo partly drawn) | < 25 nM |
| COc1cccc(CC2(C(=O)N[C@@H](CC(C)C)B(O)O)CC(CNC(=O)c3cc(C)nn3C3CCCC3)=NO2)c1 (stereo partly drawn) | < 10 nM |
| CC(C)[C@H](NC(=O)C1(Cc2ccccc2)CC(CNC(=O)c2cc(Cl)ccc2Cl)=NO1)B(O)O (stereo partly drawn) | < 10 nM |

QUERY: I'd like to know its IC50. The molecule in question is Cc1cccc(CC2(C(=O)N[C@@H](CC(C)C)B(O)O)CC(CNC(=O)c3cc(-c4ccccc4)nn3C(C)C)=NO2)c1 (stereo partly drawn)
RESULT: < 10 nM

QUERY: Tell me the measured IC50 of CC(C)C[C@H](NC(=O)C1(Cc2ccccc2)CC(CNC(=O)c2cccc(-c3ccccc3)n2)=NO1)B(O)O (stereo partly drawn) , please.
RESULT: < 10 nM

QUERY: Look at this molecule and give its reported IC50. CC(C)C[C@H](NC(=O)C1(Cc2ccccc2)CC(CNC(=O)c2cc(C(C)(C)C)nn2C(C)C)=NO1)B(O)O (stereo partly drawn)
RESULT: < 10 nM

###

measured_on: Proteasome chymotrypsin-like activity (S26 protein from RPMI8226 cells) (Homo sapiens)
pIC50: −log10 of the molar value.
Entries and their pIC50

| molecule | experimental_value |
| --- | --- |
| CC(C)C[C@H](NC(=O)C1(Cc2ccccc2)CC([C@@H](NC(=O)c2nccc3ccccc23)C(C)C)=NO1)B(O)O (stereo partly shown) | > 7.60 |
| CC(C)C[C@H](NC(=O)C1(Cc2ccccc2)CC(CNC(=O)c2cnnc3ccccc23)=NO1)B(O)O (stereo partly shown) | > 8.00 |
| CC(C)C[C@H](NC(=O)C1(Cc2ccccc2)CC(CNC(=O)c2cccc(C(F)(F)F)c2)=NO1)B(O)O (stereo partly shown) | > 8.00 |
| CC(C)C[C@H](NC(=O)C1(Cc2cccc(F)c2F)CC(CNC(=O)c2nccc3ccccc23)=NO1)B(O)O (stereo partly shown) | > 8.00 |
| CC(C)C[C@H](NC(=O)C1(Cc2ccccc2)CC(COCc2nccc3ccccc23)=NO1)B(O)O (stereo partly shown) | > 8.00 |
| Cc1nn(C(C)C)cc1C(=O)NCC1=NOC(Cc2ccccc2)(C(=O)N[C@@H](CC(C)C)B(O)O)C1 (stereo partly shown) | > 8.00 |

QUERY: Short answer please: pIC50, Proteasome chymotrypsin-like activity (S26 protein from RPMI8226 cells) (Homo sapiens), entry CC(C)C[C@H](NC(=O)C1CC(c2ccc3ccccc3n2)=NO1)B(O)O (stereo partly shown)
RESULT: > 6.60

###

measured_on: Proteasome chymotrypsin-like activity (S26 protein from RPMI8226 cells) (Homo sapiens, UniProt P28074)
Format: biochemical
run_conditions: S26 protein from RPMI8226 cell extract 2 ug/well, substrate 20 uM, 37° C., 90 minutes; read-out: Proteasome chymotrypsin-like activity inhibition IC50
pIC50: −log10 of the molar value.
attribute_measured: pIC50

| compound | pIC50 |
| --- | --- |
| CC(C)C[C@H](NC(=O)C1(Cc2ccccc2Cl)CC(CNC(=O)c2nccc3ccccc23)=NO1)B(O)O (some centres unmarked) [Example 102] | > 8.00 |

QUERY: Recorded pIC50 of Cc1cc(C(=O)NCC2=NOC(Cc3cccc(Cl)c3)(C(=O)N[C@@H](CC(C)C)B(O)O)C2)n(C(C)C)n1 (some centres unmarked) [Example 225] , please.
RESULT: > 8.00

QUERY: # lookup: pIC50 of CC(C)C[C@H](NC(=O)C1CC(c2cnc3ccccc3c2)=NO1)B(O)O (some centres unmarked) [Example 29]
RESULT: > 6.30

QUERY: // query pIC50 value for entry CC(C)C[C@H](NC(=O)C1(Cc2ccccc2)CC(CNC(=O)c2ccc(Cl)cc2)=NO1)B(O)O (some centres unmarked) [Example 287]
RESULT: > 8.00

QUERY: Look up pIC50 for this compound: CC(C)C[C@H](NC(=O)C1(Cc2ccccc2)CC(CNC(=O)c2cccc3ncnn23)=NO1)B(O)O (some centres unmarked) [Example 312]
RESULT: > 7.60

QUERY: What measured pIC50 goes with O=C(NCC1=NOC(Cc2ccccc2)(C(=O)N[C@@H](Cc2ccccc2)B(O)O)C1)c1cc(Cl)ccc1Cl (some centres unmarked) [Example 296] ?
RESULT: > 8.00

###

measured_on: Proteasome caspase-like activity (S26 protein from RPMI8226 cells) (Homo sapiens (Human), UniProt P28072)
Sequence (P28072 whole entry): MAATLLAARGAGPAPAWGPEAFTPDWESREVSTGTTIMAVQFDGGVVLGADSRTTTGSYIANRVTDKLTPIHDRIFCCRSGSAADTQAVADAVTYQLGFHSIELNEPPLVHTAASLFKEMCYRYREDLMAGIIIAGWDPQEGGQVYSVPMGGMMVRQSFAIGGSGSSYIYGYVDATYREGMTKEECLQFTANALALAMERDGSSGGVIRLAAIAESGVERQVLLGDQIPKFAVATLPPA
pIC50: −log10 of the molar value.
Parameter: pIC50. Scope: all listed entries.

| compound | experimental_value |
| --- | --- |
| O=C(NCC1=NOC(Cc2ccccc2)(C(=O)N[C@@H](Cc2ccccc2)B(O)O)C1)c1ccccc1 (some centres unmarked) | < 6.00 |

QUERY: Given the entry CC(C)C[C@H](NC(=O)C1(Cc2ccccc2)CC(CNS(=O)(=O)c2cc(Cl)ccc2Cl)=NO1)B(O)O (some centres unmarked) , report its measured pIC50.
RESULT: < 6.30

QUERY: What value of measured pIC50 is listed for CC(C)C[C@H](NC(=O)C1(Cc2ccccc2)CC(CNC(=O)c2cccc3ccccc23)=NO1)B(O)O (some centres unmarked) ?
RESULT: < 6.30

QUERY: Given the entry CC(C)C[C@H](NC(=O)C1CC([C@@H](NC(=O)c2cc(Cl)ccc2Cl)C(C)C)=NO1)B(O)O (some centres unmarked) , report its measured pIC50.
RESULT: < 7.00

QUERY: I have this compound here, Cc1nc(C)c(C(=O)NCC2=NOC(COc3ccccc3)(C(=O)N[C@@H](CC(C)C)B(O)O)C2)s1 (some centres unmarked) , and I need its recorded pIC50.
RESULT: < 6.30

QUERY: Quick check: pIC50 of CC(C)C[C@H](NC(=O)C1(CCc2ccccc2)CC(CNC(=O)c2nccc3ccccc23)=NO1)B(O)O (some centres unmarked) ?
RESULT: < 6.00

QUERY: What value of pIC50 has been reported for the following compound? Cc1nc(C)c(C(=O)NCC2=NOC(Cc3ccccc3)(C(=O)N[C@@H](CC(C)C)B(O)O)C2)s1 (some centres unmarked)
RESULT: < 6.30

###

measured_on: Proteasome chymotrypsin-like activity (S26 protein from RPMI8226 cells) (Homo sapiens, UniProt P28074)
pIC50: −log10 of the molar value.
The entries below come with measured pIC50 values attached.

QUERY: Recorded pIC50 of CC(C)C[C@H](NC(=O)C1(Cc2ccccc2)CC(CNC(=O)c2cn(C)c3ccccc23)=NO1)B(O)O (stereo partly shown) , please.
RESULT: > 8.00

QUERY: Quick one: pIC50 of COc1cccc(CC2(C(=O)N[C@@H](CC(C)C)B(O)O)CC(CNC(=O)c3cc(-c4ccccn4)nn3C(C)C)=NO2)c1 (stereo partly shown) ?
RESULT: > 8.00

QUERY: If you can, please state the reported pIC50 value of COCCn1nccc1C(=O)NCC1=NOC(Cc2ccccc2)(C(=O)N[C@@H](CC(C)C)B(O)O)C1 (stereo partly shown) .
RESULT: > 7.60

QUERY: For the compound CC(C)C[C@H](NC(=O)C1(Cc2ccccc2)CC(CNC(=O)c2ccnc3c2ccn3C(C)C)=NO1)B(O)O (stereo partly shown) , what pIC50 is on record?
RESULT: > 8.00

QUERY: What value of pIC50 has been reported for the following compound? CC(C)C[C@H](NC(=O)C1CC(C(=O)NCc2cc(Cl)ccc2Cl)=NO1)B(O)O (stereo partly shown)
RESULT: > 7.00

QUERY: Report pIC50 for CC(C)C[C@H](NC(=O)C1(Cc2ccccc2)CC(CNC(=O)c2cc(-c3cccnc3)nn2C(C)C)=NO1)B(O)O (stereo partly shown) please.
RESULT: > 8.00

QUERY: Using the record for O=C(N[C@@H](Cc1ccccc1)B(O)O)C1(Cc2ccccc2)CC(COc2cccc3ccccc23)=NO1 (stereo partly shown) , report its pIC50.
RESULT: > 8.00
